Ki values by entry
subject-of-test: Solute carrier organic anion transporter family member 1B1 (Homo sapiens, UniProt Q9Y6L6)
Sequence (Q9Y6L6 whole entry): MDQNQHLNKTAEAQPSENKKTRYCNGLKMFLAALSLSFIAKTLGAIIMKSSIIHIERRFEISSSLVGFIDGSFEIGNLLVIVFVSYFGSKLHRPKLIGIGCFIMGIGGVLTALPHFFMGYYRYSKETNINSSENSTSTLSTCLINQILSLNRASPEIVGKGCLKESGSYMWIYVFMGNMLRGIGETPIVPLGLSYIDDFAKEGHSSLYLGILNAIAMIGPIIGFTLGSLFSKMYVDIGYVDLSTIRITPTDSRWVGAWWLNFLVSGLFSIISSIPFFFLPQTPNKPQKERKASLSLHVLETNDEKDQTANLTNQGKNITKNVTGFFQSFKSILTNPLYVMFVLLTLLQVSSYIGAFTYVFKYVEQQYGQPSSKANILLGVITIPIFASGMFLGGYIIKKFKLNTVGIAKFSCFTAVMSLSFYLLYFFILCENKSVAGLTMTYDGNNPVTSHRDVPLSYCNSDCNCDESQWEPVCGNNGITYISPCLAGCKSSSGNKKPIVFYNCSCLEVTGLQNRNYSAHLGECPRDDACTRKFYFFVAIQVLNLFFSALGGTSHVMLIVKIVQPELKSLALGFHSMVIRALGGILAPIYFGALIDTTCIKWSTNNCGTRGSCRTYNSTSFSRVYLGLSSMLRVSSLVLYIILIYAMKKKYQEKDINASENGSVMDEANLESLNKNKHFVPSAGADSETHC
Reply with just the number (in µM).

Some molecules with known Ki results, for comparison:
Param readout= Ki; system= Solute carrier organic anion transporter family member 1B1 (Homo sapiens, UniProt Q9Y6L6); entry= C=C1[C@@H]2CC[C@@]3(C)[C@H](c4ccoc4)OC(=O)C[C@]13O[C@H]1C[C@H](OC(C)=O)C(C)(C)[C@H](CC(=O)OC)[C@]12C ; returns value. 0.51

Note, next up: CC(C)=CCCC1(C)C=Cc2c(O)c3c(c(CC=C(C)C)c2O1)OC12C(=CC4CC1C(C)(C)OC2(C/C=C(/C)C(=O)O)C4O)C3=O (configuration not stated) [DIHYDROGAMBOGIC ACID] 1.23

Note, next up: CC(C)C1=CC2=CC[C@@H]3[C@](C)(CCC[C@@]3(C)C(=O)O)[C@H]2CC1 1.47

Note, next up: CC1(C)CC[C@]2(C(=O)O)CC[C@]3(C)C(=CC[C@@H]4[C@@]5(C)CC[C@H](O)[C@@](C)(CO)[C@@H]5CC[C@]43C)[C@@H]2C1 2.11

Note, next up: O=C(O[C@@H]1Cc2c(O)cc(O)cc2O[C@@H]1c1ccc(O)c(O)c1)c1cc(O)c(O)c(O)c1 [EPICATECHIN GALLATE] 2.07

Next:
Param readout= Ki; system= Solute carrier organic anion transporter family member 1B1 (Homo sapiens, UniProt Q9Y6L6); entry= C=C1[C@@H]([C@@]2(C)[C@@H](OC(C)=O)CC(=O)O[C@](C)(COC(C)=O)[C@@H]2C(=O)OC)[C@@H](OC=O)[C@H](OC(=O)[C@H](O)[C@H](C)CC)[C@@]2(C)[C@H](c3ccoc3)CC(=O)[C@]12O ; returns value. 1.28

Note, next up: CCCCCC[C@H]1C(=O)O[C@H](C)[C@H](NC(=O)c2cccc(NC=O)c2O)C(=O)O[C@@H](C)[C@@H]1OC(=O)CC(C)C [ANTIMYCIN A] 2.2

Note, next up: CC(=O)O[C@@H]1C[C@H]2C(C)(C)C(=O)CC[C@]2(C)[C@H]2CC[C@]3(C)C(=CC(=O)O[C@H]3c3ccoc3)[C@@]21C 1.94

Note, next up: COC(=O)/C(C)=C\CC12OC(C)(C)C3CC(C=C4C(=O)c5c(OC)c6c(c(CC=C(C)C)c5OC431)OC(C)(CCC=C(C)C)C=C6)C2=O (configuration not stated) [DIMETHYL GAMBOGATE] 1.26

Note, next up: Cc1onc(-c2c(Cl)cccc2Cl)c1C(=O)N[C@@H]1C(=O)N2[C@@H]1SC(C)(C)[C@@H]2C(=O)[O-].O.[Na+] [DICLOXACILLIN SODIUM] 0.37

Note, next up: CCCCC/C=C\C/C=C\C/C=C\C/C=C\CCCC(=O)O 0.33

Note, next up: CC(=O)O[C@@H]1C[C@@H]2C(C)(C)C(=O)C=C[C@@]2(C)[C@@H]2CC[C@@]3(C)C(=CC(=O)O[C@@H]3c3ccoc3)[C@@]12C 0.83

The measurements presented in this section are drawn from ChEMBL document CHEMBL3039007.
